- Test system: SAUR 9218
- Assay overview: MIC Test Method, standard agar dilution
- Assay type: cell-based
- Assay context: agar dilution, Mueller Hinton agar, incubated overnight at 35° C.; lowest concentration that inhibits visible growth; read-out: SAUR 9218 MIC
Property: MIC (µg/mL)
Kindly provide the numeric value in µg/mL only, without the unit symbol.

In the examples that follow, each entry is paired with its recorded MIC.
[[record]]
compound_structure = "CC(=O)Nc1ccccc1-c1ccc2c(C(=O)Nc3ccc(C#N)cc3C(=O)O)noc2c1"
endpoint_result = 0.5

[[record]]
compound_structure = "N#Cc1ccc(NC(=O)c2nnc(SCc3ccccc3)s2)c(C(=O)O)c1"
endpoint_result = 0.125

[[record]]
compound_structure = "N#Cc1ccc(NC(=O)c2cc(CNC(=N)N)on2)c(C(=O)O)c1"
endpoint_result = 128


Query :: Entry CCCn1c(C(=O)Nc2ccc(Cl)cc2C(=O)O)cc2ccccc21 , system SAUR 9218: what MIC was measured?
Result :: 4

Query :: Now try N#Cc1ccc(NC(=O)c2noc3ccccc23)c(C(=O)O)c1 .
Result :: 0.125

###

- Tested on: SAUR 9218
- Assay overview: MIC Test Method, standard agar dilution
- Type: cell-based
- Assay context: agar dilution, Mueller Hinton agar, incubated overnight at 35° C.; lowest concentration that inhibits visible growth; read-out: SAUR 9218 MIC
- Procedure: The in vitro MiCs of test compounds were determined by a standard agar dilution method. A stock drug solution of each analog was prepared in the preferred solvent, usually DMSO:H2O (1:3). Serial 2-fold dilutions of each sample are made using 1.0 ml aliquots of sterile distil]ed water. […] Following incubation the Minimum Inhibitory Concentration (MIC μg/ml), the lowest concentration of drug that inhibits visible growth of the organism, was read and recorded.
Parameter MIC: see the listing below.
Kindly provide the numeric value in µg/mL only, without the unit symbol.

[[record]]
compound_structure = "N#Cc1ccc(NC(=O)c2cc3cccc(NS(=O)(=O)Cc4ccccc4)c3[nH]2)c(C(=O)O)c1"
property = "MIC"
endpoint_result = 0.125

[[record]]
compound_structure = "O=C(O)c1cc(Br)ccc1NC(=O)c1noc2ccc(S(=O)(=O)N3CCOCC3)cc12"
property = "MIC"
endpoint_result = 0.5

[[record]]
compound_structure = "Cn1nc(-c2ccccc2)cc1C(=O)Nc1ccc(Br)cc1C(=O)O"
property = "MIC"
endpoint_result = 64

[[record]]
compound_structure = "N#Cc1ccc(NC(=O)c2ccc(SCCCOc3ccc(Br)cc3)nc2)c(C(=O)O)c1"
property = "MIC"
endpoint_result = 0.125

[[record]]
compound_structure = "CON=C1CCn2c(C(=O)Nc3ccc(C#N)cc3C(=O)O)cc3cccc1c32"
property = "MIC"
endpoint_result = 1

[[record]]
compound_structure = "N#Cc1ccc(NC(=O)c2cncc(Oc3ccccc3)c2)c(C(=O)O)c1"
property = "MIC"
endpoint_result = 8


Query :: For N#Cc1ccc(NC(=O)c2cncc(-c3cccc4cccnc34)c2)c(C(=O)O)c1 , what is its reported MIC?
Result :: 32

Query :: Now try N#Cc1ccc(NC(=O)c2cc(-c3ccccc3OC3CCC3)on2)c(C(=O)O)c1 .
Result :: 0.125

###

- System: SAUR 9218
- Assay overview: MIC Test Method, standard agar dilution
- Type: cell-based
- Assay context: agar dilution, Mueller Hinton agar, incubated overnight at 35° C.; lowest concentration that inhibits visible growth; read-out: SAUR 9218 MIC
Property: MIC (µg/mL)
Kindly provide the numeric value in µg/mL only, without the unit symbol.

In the examples that follow, each entry is paired with its recorded MIC.
[[record]]
compound = "N#Cc1ccc(NC(=O)c2cc3cccc(Cl)c3[nH]2)c(C(=O)O)c1"
unit_text = "µg/mL"
endpoint_result = 1

[[record]]
compound = "CCCCCCSc1ccc(C(=O)Nc2ccc(Br)cc2C(=O)O)nn1"
unit_text = "µg/mL"
endpoint_result = 0.125

[[record]]
compound = "N#Cc1cccc(-c2cnc(C(=O)Nc3ccc(C#N)cc3C(=O)O)o2)c1"
unit_text = "µg/mL"
endpoint_result = 2

[[record]]
compound = "COCCOCCCSc1cnc(C(=O)Nc2ccc(Cl)cc2C(=O)O)cn1"
unit_text = "µg/mL"
endpoint_result = 2

[[record]]
compound = "CCCCCSc1cnc(C(=O)Nc2ccc(Cl)cc2C(=O)O)cn1"
unit_text = "µg/mL"
endpoint_result = 0.125


Query :: For O=C(Nc1ccc(O)cc1C(=O)O)c1cc(-c2ccccc2Br)on1 , what is its reported MIC?
Result :: 0.125

Query :: Now try Cc1ncsc1CCOc1ccccc1-c1cc(C(=O)Nc2ccc(C#N)cc2C(=O)O)no1 .
Result :: 128

Query :: Now try N#Cc1ccc(NC(=O)c2cc(-c3ccccc3OCC3CCC3)on2)c(C(=O)O)c1 .
Result :: 0.125

Query :: Now try Cc1sc(C(=O)Nc2ccc(C#N)cc2C(=O)O)cc1S(=O)(=O)N1CCCC(C)C1 (stereo not shown) .
Result :: 2

###

- System: SAUR 9218
- Assay overview: MIC Test Method, standard agar dilution
- Assay type: cell-based
- Assay context: agar dilution, Mueller Hinton agar, incubated overnight at 35° C.; lowest concentration that inhibits visible growth; read-out: SAUR 9218 MIC
Parameter MIC: see the listing below.
Kindly provide the numeric value in µg/mL only, without the unit symbol.

[[record]]
compound_structure = "O=C(O)c1cc(Cl)ccc1NC(=O)c1cc2ccccc2n1Cc1ccccc1"
experimental_target = "SAUR 9218"
unit_text = "µg/mL"
endpoint_result = 4

[[record]]
compound_structure = "N#Cc1ccc(NC(=O)c2cc3cccc(NC(=O)Cc4ccccc4)c3[nH]2)c(C(=O)O)c1"
experimental_target = "SAUR 9218"
unit_text = "µg/mL"
endpoint_result = 0.125

[[record]]
compound_structure = "N#Cc1ccc(NC(=O)c2cc3cccc(NC(=O)Cc4ccccc4Cl)c3[nH]2)c(C(=O)O)c1"
experimental_target = "SAUR 9218"
unit_text = "µg/mL"
endpoint_result = 0.25

[[record]]
compound_structure = "Cc1sc(C(=O)Nc2ccc(C#N)cc2C(=O)O)cc1S(=O)(=O)N(Cc1ccccc1)C(C)C"
experimental_target = "SAUR 9218"
unit_text = "µg/mL"
endpoint_result = 32

[[record]]
compound_structure = "N#Cc1ccc(NC(=O)c2cc3cccc(NC(=O)C4CC4)c3[nH]2)c(C(=O)O)c1"
experimental_target = "SAUR 9218"
unit_text = "µg/mL"
endpoint_result = 1

[[record]]
compound_structure = "Cn1c(C(=O)Nc2ccc(C#N)cc2C(=O)O)cc2c(Br)cc(Br)c(N)c21"
experimental_target = "SAUR 9218"
unit_text = "µg/mL"
endpoint_result = 0.5

[[record]]
compound_structure = "CC(=O)Oc1ccc(N2C(=O)c3ccc(C(=O)Nc4ccc(Br)cc4C(=O)O)cc3C2=O)cc1"
experimental_target = "SAUR 9218"
unit_text = "µg/mL"
endpoint_result = 64


Query :: Entry N#Cc1ccc(NC(=O)c2cc3cc(OCc4ccccc4)ccc3[nH]2)c(C(=O)O)c1 , system SAUR 9218: what MIC was measured?
Result :: 16

###

- System: SAUR 9218
- Assay overview: MIC Test Method, standard agar dilution
- Format: cell-based
- Assay context: agar dilution, Mueller Hinton agar, incubated overnight at 35° C.; lowest concentration that inhibits visible growth; read-out: SAUR 9218 MIC
Values of MIC strictly less than 2 µg/mL map to 1, and values of at least 2 µg/mL map to 0.

[[record]]
compound = "CCCCCCCSc1ccc(C(=O)Nc2ccc(C#N)cc2C(=O)O)nn1"
experimental_target = "SAUR 9218"
assigned_label = 1

[[record]]
compound = "N#Cc1ccc(NC(=O)c2cc(-c3ccccc3NS(=O)(=O)c3ccc(OC(F)(F)F)cc3)on2)c(C(=O)O)c1"
experimental_target = "SAUR 9218"
assigned_label = 0

[[record]]
compound = "N#Cc1ccc(NC(=O)c2noc3cc(N)ccc23)c(C(=O)O)c1"
experimental_target = "SAUR 9218"
assigned_label = 1

[[record]]
compound = "CC(C)Oc1ccccc1-c1cc(C(=O)Nc2ccc(C#N)cc2C(=O)O)no1"
experimental_target = "SAUR 9218"
assigned_label = 1

[[record]]
compound = "O=C(O)c1cc(Br)ccc1NC(=O)c1cc2ccccc2n1CC1CCCCC1"
experimental_target = "SAUR 9218"
assigned_label = 0

[[record]]
compound = "N#Cc1ccc(NC(=O)c2cc3ccccc3cn2)c(C(=O)O)c1"
experimental_target = "SAUR 9218"
assigned_label = 1


Query :: Lab note: MIC threshold 2 µg/mL. Does this compound come in strictly under it? O=C(Nc1ccc(I)cc1C(=O)O)c1cc(-c2ccccc2)on1
Result :: 1

Query :: Now try N#Cc1ccc(NC(=O)c2cc3cccc(NC(=O)C4CCC4)c3[nH]2)c(C(=O)O)c1 .
Result :: 1

Query :: Now try Cc1sc(C(=O)Nc2ccc(C#N)cc2C(=O)O)cc1S(=O)(=O)N1CCC(C#N)(c2ccccc2)CC1 .
Result :: 0

Query :: Now try CCCCNCC(O)COc1cccc2cc(C(=O)Nc3ccc(C#N)cc3C(=O)O)n(C)c12.Cl (stereo not shown) .
Result :: 1

Query :: Now try Cc1sc(C(=O)Nc2ccc(C#N)cc2C(=O)O)cc1S(=O)(=O)N1CCCC1 .
Result :: 0

Query :: Now try C=CCn1c(C(=O)Nc2ccc(Cl)cc2C(=O)O)cc2ccccc21 .
Result :: 1

Query :: Now try Cc1c(S(=O)(=O)NCCc2ccc(N)cc2)csc1C(=O)Nc1ccc(Br)cc1C(=O)O .
Result :: 0

Query :: Now try O=C(Nc1ccc(Cl)cc1C(=O)O)c1cc2cccc(S(=O)(=O)c3ccccc3)c2[nH]1 .
Result :: 1

Query :: Now try N#Cc1ccc(NC(=O)c2cc(CN3CCOCC3)on2)c(C(=O)O)c1 .
Result :: 0

Query :: Now try CS(=O)(=O)c1ccc(-c2ccc3onc(C(=O)Nc4ccc(C#N)cc4C(=O)O)c3c2)cc1 .
Result :: 1

Query :: Now try Cc1sc(C(=O)Nc2ccc(C#N)cc2C(=O)O)cc1S(=O)(=O)N1CCOCC1 .
Result :: 0

Query :: Now try Cc1ccccc1-c1cncc(C(=O)Nc2ccc(C#N)cc2C(=O)O)c1 .
Result :: 0
